System: MCF7
ASSAY_DETAILS: NCI tumour cell line growth inhibition, 48 h
Calls of active or inactive are those of the source. No stated cut-off is given here; in the data, active = GI50 up to about 1.1 µM and inactive = higher.
Your reply should match one of these outcome classes. t = active, f = inactive

Worked set:
| MOLECULE | CLASSIFICATION |
| --- | --- |
| N=C(NCc1ccccc1)N/N=C\c1ccnc2ccccc12 | f |
| O=C(O)CN(CC(=O)O)C1CCCCC1N(CC(=O)O)CC(=O)NCCN=C=S (centres undefined) | f |
| CC(C)(C)C1=CC(=CC=C2C=CN(CCCCCCCCCCCO)C=C2)C=C(C(C)(C)C)C1=O | t |
| Cc1[nH]c(=O)[nH]c(=O)c1/C=C/C(=O)NC(CO)C[S+]([O-])Cc1ccccc1 (centres undefined) | f |

[Q] Field: outcome | Entry: O=C(O)CN(CC(=O)O)C1CCCCC1N1CC(=O)OC(=O)C1 (centres undefined)
[A] f

[Q] Would you mind telling me which call this test gave COC(=O)C1=C(OC(=O)c2ccccc2)C(C(=O)OC)[C@@]2(O)[C@@H](C(=O)OC)[C@H](C)C[C@@H]1[C@@H]2C(=O)OC (some centres undefined) ?
[A] f

[Q] GET /call?item= Cn1c(=O)c2nc(CCS)[nH]c2n(C)c1=O returns the recorded outcome of this test.
[A] f

[Q] I'd appreciate the recorded outcome for O=C(NCCNCCO)N/N=C/c1ccc([N+](=O)[O-])cc1 from this test.
[A] f

[Q] Hey, what did the test say about COC(=O)C1=C(O)C(C(=O)OC)[C@@]2(O)[C@@H](C(=O)OC)CC[C@@H]1[C@@H]2C(=O)OC (some centres undefined) ?
[A] f

###

System: ACHN
ASSAY_DETAILS: NCI tumour cell line growth inhibition, 48 h
The source made the active and inactive calls. No stated cut-off is given here; in the data, active = GI50 up to about 1.1 µM and inactive = higher.
I'd appreciate it if you could supply GI50 values for the items below.

Example entries begin here.
| COMPOUND | VALUE_KIND | RESULT |
| --- | --- | --- |
| CCOc1ccc(/N=N/c2ccc(-c3ccc(/N=N/c4c(O)ccc5cc(S(=O)(=O)O)cc(S(=O)(=O)O)c45)cc3)cc2)cc1 | GI50 | > 100 µM (inactive) |
| Cc1oc2c(C)c3oc(=O)cc(C)c3cc2c1CN1C(=O)C2OCCOCCOCCOCCOCCO[C@H]2C1=O (some centres undefined) | GI50 | > 100 µM (inactive) |
| NCC(=O)OCN1C(=O)C2C3C=CC(C2C1=O)C1C2C(=O)N(COC(=O)CN)C(=O)C2C31 (centres undefined) | GI50 | 24.5 µM (inactive) |
| O=C(Cc1ccc(Cl)cc1)Nc1ccc2oc(-c3ccccc3)nc2c1 | GI50 | > 100 µM (inactive) |

Each compound below has a reported value. Please supply its GI50.
1. NNC(=O)N/N=C1/C(=O)N(c2ccc(Cl)c(Cl)c2)C(=O)C(=O)C1c1nc2ccccc2o1 (centres undefined)
2. O=c1cccccc1NCCOCCNc1cccccc1=O
3. CN(C)CC(C)(C)C(=O)/C=C/c1ccccc1
4. CCOC(=O)c1c(N2CCCC2)nsc1Nc1ccc(F)cc1
5. C=CC1C(OC2OC(CO)C(O)C(O)C2O)OC=C(C(=O)OC)C1CC1CC(=O)CC(CCc2ccc(O)cc2)O1 (centres undefined)
6. NC1(C(=O)O)CCC(C(=O)O)CC1 (centres undefined)
7. CC(Oc1ccc(Oc2cnc3ccc(Cl)cc3n2)cc1)C(=O)O (centres undefined)

[A]
1: > 100 µM (inactive); 2: > 100 µM (inactive); 3: 17.9 µM (inactive); 4: 31.2 µM (inactive); 5: > 100 µM (inactive); 6: > 100 µM (inactive); 7: 60 µM (inactive)
